test: Metabolic stability in rat liver microsome assessed as microsomal clearance; assay type: ADME; details: microsomes
Attribute measured: CLH
# output: numeric value plus its unit

For Nc1nccc(-n2ccc3cnccc32)n1 , what is its reported CLH? 101 µL/min/µg

And then Nc1nccc(-n2cc(-c3cccnc3Cl)c3cnc(Cl)cc32)n1 , what is it? 102 µL/min/µg

And then Nc1nccc(-n2cc(-c3cccnc3Cl)c3cnccc32)n1 , what is it? 72 µL/min/µg

And then Nc1nccc(-n2ccc3ncccc32)n1 , what is it? 50 µL/min/µg

* * *

test: Metabolic stability in human liver microsome assessed as microsomal clearance; format: ADME; conditions: microsomes
Attribute measured: CLH (µL/min/µg)
Express the result in µL/min/µg but write the number alone.

For orientation, consider the following solved cases.
Nc1nccc(-n2cc(-c3cccnc3Cl)c3cnccc32)n1    21
Nc1nccc(-n2cc(-c3cccnc3Cl)c3cnc(Cl)cc32)n1    30
Nc1nccc(-n2ccc3cnccc32)n1    62

For Nc1nccc(-n2ccc3ncccc32)n1 , what is its reported CLH? 60
